Can you tell me Emax for the items I'm about to list?
Measured target: UniProtKB P11229
Method description: Alphascreen Surefire phospho-ERK1/2 functional assay, M1
Assay type: cell-based
Assay conditions: CHO, read-out: % Emax cf. ACh, M1
Answers are plain numbers, in %.

The cases that follow already have their Emax on record.
molecule="CCOC(=O)N1C2CCC1CC(N1CC(CC(=O)N3CCCCC3)C1)C2 (mixture of isomers) [Example 1-4 Isomer mixture]" endpoint_unit=% test_value=84
molecule="CCOC(=O)N1C2CCCC1CC(N1CC(OC(=O)N(CC)CC)C1)C2 (single isomer, unassigned) [Example 7-1 Isomer 1]" endpoint_unit=% test_value=88
molecule="CCOC(=O)N1C2CCCC1CC(N1CC(CC(=O)N3CCCCC3)C1)C2 (single isomer, unassigned) [Example 3-3 Isomer 1]" endpoint_unit=% test_value=117
molecule="CCOC(=O)N1C2COCC1CC(N1CC(OC(=O)N3CCCCCC3)C1)C2 (single isomer, unassigned) [Example 8-1 Isomer 1]" endpoint_unit=% test_value=104
molecule="CCOC(=O)N1C2CCC1CC(N1CC(OC(=O)N3CCCCCC3)C1)C2 (mixture of isomers) [Example 5-1 Isomer mixture]" endpoint_unit=% test_value=83
molecule="CCOC(=O)N1C2CCC1CC(N1CC(CC(=O)N(CC)CC)C1)C2 (single isomer, unassigned) [Example 1-1 Isomer 2]" endpoint_unit=% test_value=100

// each molecule listed below needs its Emax
1. CCOC(=O)N1C2CCCC1CC(N1CC(CC(=O)N(CC)CC)C1)C2 (single isomer, unassigned) [Example 3-1 Isomer 1]
2. CCOC(=O)N1C2CCC1CC(N1CC(OC(=O)N3CCCOCC3)C1)C2 (mixture of isomers) [Example 5-2 Isomer mixture]
3. CCOC(=O)N1C2CCC1CC(N1CC(CC(=O)N(CC)C(C)C)C1)C2 (mixture of isomers) [Example 1-2 Isomer mixture]
4. CCOC(=O)N1C2CCCC1CC(N1CC(CC(=O)N3CCCC3)C1)C2 (single isomer, unassigned) [Example 3-2 Isomer 1]
5. CCOC(=O)N1C2CCC1CC(N1CC(CC(=O)N3CCC34CCC4)C1)C2 (single isomer, unassigned) [Example 1-3 Isomer 2]

106
92
100
68
103

###

Measured target: human muscarinic M2 receptor (Homo sapiens, UniProt P08172)
Sequence (P08172 whole entry): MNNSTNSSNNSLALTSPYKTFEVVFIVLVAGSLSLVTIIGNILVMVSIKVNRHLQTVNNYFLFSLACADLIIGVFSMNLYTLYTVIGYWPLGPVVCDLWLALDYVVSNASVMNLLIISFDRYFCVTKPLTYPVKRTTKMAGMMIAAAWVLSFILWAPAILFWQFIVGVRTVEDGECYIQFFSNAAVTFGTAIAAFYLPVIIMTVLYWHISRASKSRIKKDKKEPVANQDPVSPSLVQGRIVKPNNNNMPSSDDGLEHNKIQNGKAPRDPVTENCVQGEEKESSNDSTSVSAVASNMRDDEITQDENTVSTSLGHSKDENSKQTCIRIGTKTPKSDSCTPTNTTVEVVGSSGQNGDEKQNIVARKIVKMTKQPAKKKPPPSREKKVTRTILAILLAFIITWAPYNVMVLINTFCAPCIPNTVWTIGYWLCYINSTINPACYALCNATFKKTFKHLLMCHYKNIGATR
Method description: Alphascreen Surefire phospho-ERK1/2 functional assay, M2
Type: cell-based
Assay conditions: CHO, read-out: % Emax cf. ACh, M2, CHO cells stably expressing human M2; Emax relative to ACh
Description: ERK1/2 phosphorylation is a downstream consequence of both Gq/11 and Gi/o protein coupled receptor activation, making it highly suitable for the assessment of M1, M3 (Gq/11 coupled) and M2, M4 receptors (Gi/o coupled), rather than using different assay formats for different receptor subtypes. CHO cells stably expressing the human muscarinic M1, M2, M3 or M4 receptor were plated (25K/well) onto 96-well tissue culture plates in MEM-alpha+10% dialysed FBS. […]
What Emax was measured for each of the following?
One number for each entry, in %.

Some compounds with recorded Emax:
compound="CCOC(=O)N1CC2(CCC(N3CC(OC(=O)N4CCCOCC4)C3)C2)C1 (single isomer, unassigned) [Example 4-9 Isomer 1]" test_value=3
compound="CCOC(=O)N1CC2CCC1CC2N1CC(CC(=O)N(CC)C(C)C)C1 (single isomer, unassigned) [Example 2-2 Isomer 1]" test_value=8
compound="CCOC(=O)N1CC2CCC1CC2N1CC(CC(=O)N2CCC23CCC3)C1 (single isomer, unassigned) [Example 2-5 Isomer 1]" test_value=53
compound="CCOC(=O)N1CC2CCC1CC2N1CC(CC(=O)N(CC)CC)C1 (single isomer, unassigned) [Example 2-1 Isomer 1]" test_value=13

For each of the compounds below, state Emax.
1. CCOC(=O)N1CC2CCC1CC2N1CC(CC(=O)N2CCCCC2)C1 (single isomer, unassigned) [Example 2-3 Isomer 1]
2. CCOC(=O)N1CC2(CCC(N3CC(OC(=O)N4CCOCC4)C3)C2)C1 (single isomer, unassigned) [Example 4-8 Isomer 1]
3. CCN(CC)C(=O)OC1CN(C2CCC3(C2)CN(C(=O)OC)C3)C1 (single isomer, unassigned) [Example 4-6 Isomer 2]
4. CCOC(=O)N1CC2CCC1CC2N1CC(OC(=O)N2CCCCCC2)C1 (single isomer, unassigned) [Example 6-4 Isomer 1]
5. CCOC(=O)N1CC2(CCC(N3CC(OC(=O)N4CCCC4)C3)C2)C1 (single isomer, unassigned) [Example 4-7 Isomer 1]
6. CCOC(=O)N1CC2(CCC(N3CC(OC(=O)N(CC)CC)C3)C2)C1 (single isomer, unassigned) [Example 4-5 Isomer 1]

[10, 2, 9, 9, 7, 6]

Record Emax per entry; entries follow.
1. CCOC(=O)N1CC2(CCC(N3CC(OC(=O)N(C)CC)C3)C2)C1 (single isomer, unassigned) [Example 4-4 Isomer 1]
2. CCOC(=O)N1CCC2(CC(N3CC(OC(=O)N(CC)CC)C3)C2)C1 (single isomer, unassigned) [Example 4-2 Isomer 2]

[5, 14]

###

Measured target: human muscarinic M1 receptor (Homo sapiens, UniProt P11229)
Sequence (P11229 1-460): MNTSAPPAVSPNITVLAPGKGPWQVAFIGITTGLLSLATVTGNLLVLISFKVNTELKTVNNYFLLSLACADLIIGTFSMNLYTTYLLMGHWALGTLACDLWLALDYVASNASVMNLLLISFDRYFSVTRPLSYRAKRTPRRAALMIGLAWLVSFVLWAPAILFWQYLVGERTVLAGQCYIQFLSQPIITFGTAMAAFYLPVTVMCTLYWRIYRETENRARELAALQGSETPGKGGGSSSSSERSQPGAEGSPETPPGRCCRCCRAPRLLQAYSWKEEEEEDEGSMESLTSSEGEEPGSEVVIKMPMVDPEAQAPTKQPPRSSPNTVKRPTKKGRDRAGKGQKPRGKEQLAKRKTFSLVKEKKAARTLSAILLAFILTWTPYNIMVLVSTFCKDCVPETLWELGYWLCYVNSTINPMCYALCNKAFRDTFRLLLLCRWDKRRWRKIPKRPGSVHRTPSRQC
Method description: Alphascreen Surefire phospho-ERK1/2 functional assay, M1
Type: cell-based
Assay conditions: CHO cells stably expressing human M1; agonist 5 min, 37° C.; read-out: pEC50 M1 (converted)
Readout type: EC50 (nM)
One number for each entry, in nM.

Check out these entries, answers already filled in.
compound="CCOC(=O)N1C2CCC1CC(N1CC(CC(=O)N3CCC34CCC4)C1)C2 (single isomer, unassigned) [Example 1-3 Isomer 2]" measured_target="human muscarinic M1 receptor (Homo sapiens, UniProt P11229)" test_value=115
compound="CCOC(=O)N1C2CCC1CC(N1CC(OC(=O)N3CCCOCC3)C1)C2 (mixture of isomers) [Example 5-2 Isomer mixture]" measured_target="human muscarinic M1 receptor (Homo sapiens, UniProt P11229)" test_value=2240
compound="CCOC(=O)N1C2CCCC1CC(N1CC(CC(=O)N(CC)CC)C1)C2 (single isomer, unassigned) [Example 3-1 Isomer 1]" measured_target="human muscarinic M1 receptor (Homo sapiens, UniProt P11229)" test_value=813

EC50 for CCOC(=O)N1CC2CCC1CC2N1CC(OC(=O)N(CC)CC)C1 (single isomer, unassigned) [Example 6-1 Isomer 1] is 1050

###

Measured target: human muscarinic M2 receptor (Homo sapiens)
Method description: Alphascreen Surefire phospho-ERK1/2 functional assay, M2
Format: cell-based
Assay conditions: CHO cells stably expressing human M2; agonist 5 min, 37° C.; read-out: pEC50 M2 (converted)
Readout type: EC50

Study these solved cases before continuing.
molecule="CCOC(=O)N1CC2(CCC(N3CC(OC(=O)N(CC)CC)C3)C2)C1 (single isomer, unassigned) [Example 4-5 Isomer 1]" test_value="> 20 µM"
molecule="CCOC(=O)N1CC2(CCC(N3CC(OC(=O)N(C)CC)C3)C2)C1 (single isomer, unassigned) [Example 4-4 Isomer 1]" test_value="> 20 µM"

Continue with the molecule presented below.
For record CCOC(=O)N1CC2(CCC(N3CC(OC(=O)N4CCOCC4)C3)C2)C1 (single isomer, unassigned) [Example 4-8 Isomer 1] the listed EC50 is > 20 µM

###

Measured target: human muscarinic M4 receptor (Homo sapiens, UniProt P08173)
Construct: expressed in transfected cells
Sequence (P08173 whole entry): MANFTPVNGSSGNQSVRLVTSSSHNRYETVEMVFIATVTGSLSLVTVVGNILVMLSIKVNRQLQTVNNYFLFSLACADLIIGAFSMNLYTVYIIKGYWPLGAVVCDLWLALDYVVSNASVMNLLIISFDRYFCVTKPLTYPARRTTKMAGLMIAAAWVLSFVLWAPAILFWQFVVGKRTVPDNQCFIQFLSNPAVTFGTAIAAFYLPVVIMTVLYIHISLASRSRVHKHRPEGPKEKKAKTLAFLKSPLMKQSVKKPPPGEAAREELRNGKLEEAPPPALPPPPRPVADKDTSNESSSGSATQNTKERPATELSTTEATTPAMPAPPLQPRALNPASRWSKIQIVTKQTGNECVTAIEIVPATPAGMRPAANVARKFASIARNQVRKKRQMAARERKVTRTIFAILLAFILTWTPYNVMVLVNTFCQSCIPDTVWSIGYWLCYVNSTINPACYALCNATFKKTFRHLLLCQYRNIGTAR
Method description: Alphascreen Surefire phospho-ERK1/2 functional assay, M4
Assay type: cell-based
Assay conditions: CHO cells stably expressing human M4; agonist 5 min, 37° C.; read-out: pEC50 M4 (converted)
The label true (1) is reserved for EC50 strictly under 200 nM; false (0) covers values equal to or above it.

Some entries whose results are on file:
compound="CCOC(=O)N1CC2(CCC(N3CC(OC(=O)N4CCCOCC4)C3)C2)C1 (single isomer, unassigned) [Example 4-9 Isomer 2]" label_class="false (0)"
compound="CCOC(=O)N1CC2(CCC(N3CC(OC(=O)N(C)CC)C3)C2)C1 (single isomer, unassigned) [Example 4-4 Isomer 1]" label_class="true (1)"
compound="CCOC(=O)N1CC2(CCC(N3CC(OC(=O)N4CCOCC4)C3)C2)C1 (single isomer, unassigned) [Example 4-8 Isomer 1]" label_class="false (0)"

# TODO verify EC50 < 200 nM strictly for this compound: CCOC(=O)N1C2CCC1CC(N1CC(OC(=O)N3CCCCCC3)C1)C2 (mixture of isomers) [Example 5-1 Isomer mixture]
false (0)

EC50 under 200 nM? Item: CCOC(=O)N1CC2(CCC(N3CC(OC(=O)N4CCCC4)C3)C2)C1 (single isomer, unassigned) [Example 4-7 Isomer 1]
true (1)
